Data provenance is patent US4584312A.

Recorded measurements of % Inhibition (Preventative Adjuvant Edema), one per entry
Tested on: Freund's complete adjuvant hind paw edema
Experiment: Preventative Adjuvant Edema
Assay type: in vivo, rat (Male Sprague Dawley)
Conditions: 25 mg/kg, p.o.; rats; hind paw edema volume day 0 to day 3; dosed day 0, 1 and 2
Method: This test is a primary screen for anti-inflammatory drugs. Male Sprague Dawley rats (180-200 g) are used. The animals have free access water but food is withdrawn 18 hours before testing. […] The method is essentially that described by Wax et al., J. Pharmacol. Exp. Ther., 192, 166-171 (1975). […] The injected hind paw volume is measured before the injection of adjuvant and 24 hrs. after the last drug administration (day 3) by means of a plethysmometer (Buxco Electronics Inc.). […]
# number only, unit % dropped from output

CCc1cccc2c3c([nH]c12)C(CC)(CC(=O)O)CCC3C1CCCC1 (single isomer, unassigned) [Example 2 c Isomer B]
0
CCc1cccc2c3c([nH]c12)C(CC)(CC(=O)O)CCC3C1CCCC1 (single isomer, unassigned) [Example 2 d Isomer A]
0
CCc1cccc2c3c([nH]c12)C(CC)(CC(=O)O)CCC3C1CC1 (single isomer, unassigned) [Example 1 f Isomer A]
0

Next molecule, % Inhibition (Preventative Adjuvant Edema) to be filled in.
Given the entry CCc1cccc2c3c([nH]c12)C(CC)(CC(=O)O)CCC3C1CC1 (single isomer, unassigned) [Example 1 f Isomer B] , report its measured % Inhibition (Preventative Adjuvant Edema).
12
